test system: mTOR (phospho-S6, pS6); experiment: In vitro mTOR inhibition by phospho-S6 (pS6) assay in LPS-stimulated splenocytes; format: cell-based, C57BL/6 mice; settings: half maximal inhibitory concentration of pS6 inhibition in IA/IE+ cells; splenocytes, phospho-S6 assay; read-out: Approximate IC50
IC50 by entry:

| SUBSTANCE | TARGET_ENTITY | IC50, µM |
| --- | --- | --- |
| OH-PEG24-VZQLQPFPQPELPYPQPQLPYPQPQPFR-SPVZ(X-DBCO)-Ahx-WWK(ZV-Everolimus)WW [Compound 144] | mTOR (phospho-S6, pS6) | 0.013 |
| OH-PEG24-VZQLQPFPQPELPYPQPQLPYPQPQPFR-SPVZK(DBCO-N3)-Everolimus [Compound 145] | mTOR (phospho-S6, pS6) | 0.185 |
| OH-PEG24-VZQLQPFPQPELPYPQPQLPYPQPQPFR-SPVZ-(X DBCO)-Ahx-WWK(Everolimus)WW [Compound 143] | mTOR (phospho-S6, pS6) | 0.15 |
| OH-PEG24-VZQLQPFPQPELPYPQPQLPYPQPQPFR-SPVZX(DBCO-Ahx-ZV-Everolimus) [Compound 146] | mTOR (phospho-S6, pS6) | 0.074 |

Hey, just so you know, these numbers are from patent US12642851B2.
